biological target: UniProt:P35372; assay: biochemical; conditions: class symbols; read-out: GTP Activity
experimentalEndpoint: EC50

molecule | experimentalEndpoint | reading
CCNC1=C(c2nc3ccccc3[nH]2)C(=O)[C@H](CC)N1c1cc(OC)cc(OC)c1 [compound 187] | EC50 | < 100 nM
COc1cc(OC)cc(N2C(NCC3CC3)=C(c3nc4ccccc4[nH]3)C(=O)C2(C)C)c1 [compound 125] | EC50 | 1000 to 10000 nM
COc1cc(OC)cc(N2C(N)=C(c3nc4ccccc4[nH]3)C(=O)[C@@H]2C(C)C)c1 [compound 98] | EC50 | < 100 nM
CC[C@]1(C)C(=O)C(c2nc3ccccc3[nH]2)=C(N)N1c1cc(OC)cc(OC)c1 [compound 84] | EC50 | 100 to 1000 nM
CC[C@@]1(C)C(=O)C(c2nc3ccccc3[nH]2)=C(N)N1c1cc(OC)cc(OC)c1 [compound 85] | EC50 | 100 to 1000 nM

# EC50 (molecule: Cc1ccc(C)c(N2CC(=O)C(c3nc4c(C)cccc4[nH]3)=C2N)c1 [compound 17] ) is 1000 to 10000 nM

# EC50 (molecule: COc1cc(OC)cc(N2C(N)=C(c3nc4ccccc4[nH]3)C(=O)[C@H]2C)c1 [compound 82] ) is < 100 nM

# EC50 (molecule: CC(C)(C)Oc1ccccc1N1CC(=O)C(c2nc3ccccc3[nH]2)=C1N [compound 45] ) is 1000 to 10000 nM

# EC50 (molecule: COc1cc(OC)cc(N2C(NC(C)C)=C(c3nc4ccccc4[nH]3)C(=O)C2(C)C)c1 [compound 90] ) is 100 to 1000 nM

# EC50 (molecule: CNC1=C(c2nc3ccccc3[nH]2)C(=O)C2(CCCC2)N1c1cc(OC)cc(OC)c1 [compound 188] ) is < 100 nM

###

The entries below come with measured pEC50 values attached.
biological target: mu-opioid receptor (Homo sapiens, UniProt P35372); test: biochemical; conditions: […]; class symbol combines EC50 and efficacy; read-out: GTP Activity
Sequence (P35372 whole entry, species assumed): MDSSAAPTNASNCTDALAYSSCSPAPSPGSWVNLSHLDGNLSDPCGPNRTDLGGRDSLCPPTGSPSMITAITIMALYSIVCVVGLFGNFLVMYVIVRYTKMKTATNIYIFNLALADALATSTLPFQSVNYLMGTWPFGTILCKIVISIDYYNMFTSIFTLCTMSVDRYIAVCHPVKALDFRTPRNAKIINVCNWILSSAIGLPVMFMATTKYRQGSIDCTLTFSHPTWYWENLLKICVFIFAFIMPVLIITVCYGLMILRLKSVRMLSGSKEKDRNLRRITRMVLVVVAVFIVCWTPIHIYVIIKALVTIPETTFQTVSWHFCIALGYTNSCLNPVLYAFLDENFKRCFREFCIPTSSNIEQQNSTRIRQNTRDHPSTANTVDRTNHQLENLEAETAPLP
pEC50: −log10 of the molar value.

Answered cases to consult:
molecule | pEC50
CNc1c(-c2nc3ccccc3[nH]2)c(=O)n(CCCO)n1-c1cc(OC)cc(OC)c1 | > 7.00
COc1cc(OC)cc(N2C(N)=C(c3nc4ccccc4[nH]3)C(=O)C23CCOCC3)c1 | 6.00 to 7.00
CNC1=C(c2nc3ccccc3[nH]2)C(=O)C(CC(C)O)N1c1cc(OC)cc(OC)c1 (stereo not shown) | > 7.00
CNC1=C(c2nc3ccccc3[nH]2)C(=O)[C@@](C)(CCNC(C)=O)N1c1cc(OC)cc(OC)c1 | > 7.00
COc1cc(OC)cc(N2C(N)=C(c3nc4ccccc4[nH]3)C(=O)C23CN(C(=O)c2ccccc2)C3)c1 | 5.00 to 6.00
CNC1=C(c2nc3ccccc3[nH]2)C(=O)[C@](C)(COC)N1c1cc(OC)cc(OC)c1 | 6.00 to 7.00
COc1cc(OC)cc(N2C(N)=C(c3nc4ccccc4[nH]3)C(=O)[C@]2(C)CCNC(C)=O)c1 | 6.00 to 7.00
CNC1=C(c2nc3ccccc3[nH]2)C(=O)C2(CCCOC2)N1c1cc(OC)cc(OC)c1 (stereo not shown) | > 7.00

# pEC50 (molecule: CNC1=C(c2nc3ccccc3[nH]2)C(=O)C2(CC(=O)C2)N1c1cc(OC)cc(OC)c1 ) is > 7.00

# pEC50 (molecule: CNc1c(-c2nc3ccccc3[nH]2)c(=O)n(CCNC(C)=O)n1-c1cc(OC)cc(OC)c1 ) is 6.00 to 7.00

# pEC50 (molecule: CNC1=C(c2nc3ccccc3[nH]2)C(=O)C(C)(Cc2ccco2)N1c1cc(OC)cc(OC)c1 (stereo not shown) ) is 6.00 to 7.00

Numbers sourced from patent US9580409B2.
